# Tested on: SK-MEL-5
# assay.notes: NCI tumour cell line growth inhibition, 48 h
The source made the active and inactive calls. Rule as the data show it: active = GI50 up to about 1.1 µM and inactive = higher.
Below: a set of entries, each annotated with reported GI50.

Examples with answers:
Qu. Dear colleague, I am looking for the recorded GI50 of the following molecule: `Cc1ccnc(NS(=O)(=O)c2ccc(NC(=O)c3ccc4nc5ccccc5c(Nc5ccc(S(=O)(=O)Nc6nccc(C)n6)cc5)c4c3)cc2)n1`
Ans. 27.7 µM (inactive)

Qu. Do the same for Cc1nn(C(=O)c2ccccc2O)c2c1C(c1ccc(O)cc1)SC(=N)N2 (stereo not given) please
Ans. > 3.08 µM (inactive)

Others:
Qu. Dear colleague, I am looking for the recorded GI50 of the following molecule: `O=C1Nc2ccccc2/C1=N/N=C1NCCCCN1`
Ans. > 100 µM (inactive)

Qu. Do the same for `CC(C)(C)C1CCN(C(=O)c2ccccc2)CC1` please
Ans. 28.8 µM (inactive)

Qu. Do the same for `O=c1c(-c2ccccc2)nnc2n(Cc3ccccc3)c3ccccc3n12` please
Ans. > 100 µM (inactive)

----------
# Test system: OVCAR-5
# assay.notes: NCI tumour cell line growth inhibition, 48 h
Active and inactive are the calls of the source. No stated cut-off is given here; in the data, active = GI50 up to about 1.1 µM and inactive = higher.
experimental.readout: GI50

Examples with answers:
Qu. Dear colleague, I am looking for the recorded GI50 of the following molecule: `CCOC(=O)CSc1nnc(CSc2nc(-c3ccccc3)c(-c3ccccc3)[nH]2)n1-c1ccccc1`
Ans. > 59.2 µM (inactive)

Qu. Do the same for `CC(=O)N(CC(=O)C(=O)NNc1ccoc1)c1ccc(Cl)cc1` please
Ans. > 100 µM (inactive)

Qu. Do the same for `CCCC(=O)OC[n+]1cccc(-c2c(COC(=O)NC(C)C)c(COC(=O)NC(C)C)c3n2CCC3)c1` please
Ans. 97.7 µM (inactive)

Now take the following molecule into account.
Qu. Dear colleague, I am looking for the recorded GI50 of the following molecule: COC(=O)C1=C(O)C(C(=O)OC)[C@]2(O)[C@H](C(=O)OC)[C@H]1C[C@@H](c1ccc(F)cc1)[C@H]2C(=O)OC (some centres undefined)
Ans. 17.7 µM (inactive)

----------
# System: OVCAR-4
# assay.notes: NCI tumour cell line growth inhibition, 48 h
Active and inactive are the calls of the source. Rule as the data show it: active = GI50 up to about 1.1 µM and inactive = higher.
# valid calls are active, inactive; nothing else

Qu. Give the logged outcome of this assay for the following compound: CC12OC3(C)OC(=O)C(c4ccccc4)(O1)C3(C)O2 (stereo unspecified)
Ans. inactive

Qu. Do the same for COc1ccc2cc1Oc1ccc(cc1)CC1c3c(cc(OC)c4c3Oc3cc5c(cc3O4)CCNC5C2)CCN1C (stereo unspecified) please
Ans. inactive

Qu. Do the same for `CCOP(=O)(O)C(C)(C)NC` please
Ans. inactive

Qu. Do the same for `O=c1/c(=C/c2cccc([N+](=O)[O-])c2)sc2nc3ccccc3n12` please
Ans. inactive

Qu. Do the same for `Nc1nc2c(c(-c3ccccc3Cl)n1)COC/C2=C\c1ccccc1Cl` please
Ans. inactive

Qu. Do the same for CCCC(C)C[C@@H](C)CC(C)/C=C(\C)c1oc(=O)c(C)c(O)c1C.CC[C@@H](C)C[C@@H](C)C[C@@H](C)/C=C(\C)c1oc(=O)c(C)c(O)c1C (stereo partly specified) please
Ans. inactive

Qu. Do the same for C=C1C(O)C2(O)OCC34C(CC5C(C)=CC(=O)C(O)C5(C)C23)OC(=O)C(OC(=O)C/C=C(\C)CCCCC)C14 (stereo unspecified) please
Ans. active

Qu. Do the same for `COc1cc(NS(C)(=O)=O)ccc1Nc1cc(C)nc2ccc3[nH]ccc3c12` please
Ans. inactive

Qu. Do the same for COc1ccc(N2C(=O)C3c4[nH]c5cccc(C)c5c4C4CCC(C(C)(C)C)CC4C3C2=O)cc1 (stereo unspecified) please
Ans. active

Qu. Do the same for `O=C(/C=C/c1ccc(-c2ccccc2[N+](=O)[O-])o1)NCc1ccc(C(=O)NCCc2ccccc2)cc1` please
Ans. inactive

Others:
Qu. Give the logged outcome of this assay for the following compound: `Cc1nc(-n2nc(-c3ccccc3)cc2-c2ccccc2)sc1C(=O)/C=C/c1ccc([N+](=O)[O-])cc1`
Ans. inactive

Qu. Do the same for `N#CC(=S)Nc1cccc(Cl)c1` please
Ans. inactive

Qu. Do the same for `OCCn1cnc2c(SCc3ccccc3)ncnc21` please
Ans. inactive

Qu. Do the same for NC(=O)SCCC(N)C(=O)O (stereo unspecified) please
Ans. inactive

Qu. Do the same for `c1ccc(CN2CCC(Nc3ccccc3)(c3nnnn3Cc3ccccc3)CC2)cc1` please
Ans. inactive

Qu. Do the same for Cc1ccc(NC(=O)C(=O)CC(=O)C2CCOC2=O)c(C)c1 (stereo unspecified) please
Ans. inactive

Qu. Do the same for Cc1ccc(C2CC(=O)CC(c3ccc(C)cc3)C23C(=O)NC(=O)NC3=O)cc1 (stereo unspecified) please
Ans. inactive

Qu. Do the same for COc1cc2c3c(cc(Cl)nc3c1OC)C(O)(CC(=O)c1ccccc1)C(=O)N2 (stereo unspecified) please
Ans. inactive

Qu. Do the same for `O=C1Nc2cc(F)ccc2C1=O` please
Ans. inactive

Qu. Do the same for `COc1ccc(-c2cc(O)c3ccc(F)cc3n2)cc1` please
Ans. inactive

Qu. Do the same for `C[N+](C)(C)CC(=O)N/N=C(/Cc1nc2ccc([N+](=O)[O-])cc2nc1O)C(=O)Nc1cc(C(F)(F)F)ccc1Cl` please
Ans. inactive

Qu. Do the same for `CCN(C(=O)N[C@H](C(=O)N[C@@H](C)C(=O)OC)C(C)C)c1ccccc1` please
Ans. inactive

----------
Below: a set of entries, each annotated with reported GI50.
# System: SF-268
# assay.notes: NCI tumour cell line growth inhibition, 48 h
The source made the active and inactive calls. Cut-off read from the data, not from the text of the source: active = GI50 up to about 1.1 µM and inactive = higher.

Examples with answers:
Qu. Dear colleague, I am looking for the recorded GI50 of the following molecule: `N#CCCC1(CCC#N)S(=O)(=O)OCCOS1(=O)=O`
Ans. 32.9 µM (inactive)

Qu. Do the same for `C[N+](C)(C)CC(=O)N/N=C(/Cc1nc2ccc([N+](=O)[O-])cc2nc1O)C(=O)Nc1cc(C(F)(F)F)ccc1Cl` please
Ans. > 100 µM (inactive)

Qu. Do the same for `O=C1N[C@H](Cc2c[nH]cn2)C(=O)N2CCC[C@@H]12` please
Ans. > 100 µM (inactive)

Others:
Qu. Dear colleague, I am looking for the recorded GI50 of the following molecule: `Nc1nc2c(c(-c3ccccc3Cl)n1)COC/C2=C\c1ccccc1Cl`
Ans. 16.9 µM (inactive)

Qu. Do the same for `O=C1Nc2ccccc2/C1=N/N=C1NCCCCN1` please
Ans. > 100 µM (inactive)

----------
# Tested on: OVCAR-5
# assay.notes: NCI tumour cell line growth inhibition, 48 h
Active and inactive are the calls of the source. Rule as the data show it: active = GI50 up to about 1.1 µM and inactive = higher.
experimental.readout: GI50

Examples with answers:
Qu. Dear colleague, I am looking for the recorded GI50 of the following molecule: `CCOC(=O)/C(=C\NC(C)(C)CO)c1nc2ccccc2[nH]1`
Ans. > 100 µM (inactive)

Qu. Do the same for `O=C(C/C(=N/O)c1cc(-c2ccccc2)no1)c1ccccc1` please
Ans. > 100 µM (inactive)

Qu. Do the same for `O=Cc1ccccc1B(O)O` please
Ans. 87.5 µM (inactive)

Others:
Qu. Dear colleague, I am looking for the recorded GI50 of the following molecule: CC(SC(=S)N(C)C)C(=O)Nc1nnc(-c2ccc(Cl)cc2)o1 (stereo not given)
Ans. 56.4 µM (inactive)

Qu. Do the same for `Cc1cc2nc(N3C(=O)/C(=C/c4ccc(Cl)cc4)N=C3c3ccccc3)sc2cc1C` please
Ans. 24.2 µM (inactive)

Qu. Do the same for C/C=C/C=C\C(=O)C1c2cccc(O)c2C(=O)c2c(O)cc(C)cc21 (stereo not given) please
Ans. 1.82 µM (inactive)

Qu. Do the same for `CCCCc1c(OC)cc(O)c2c1C(=O)c1[nH]c(C(=O)O)c(O)c(=O)c1C2=O` please
Ans. 4.9 µM (inactive)

Qu. Do the same for `CC1=C(C)C(=O)C(C2=CC(=O)C=CC2=O)=C(C2=CC(=O)C=CC2=O)C1=O` please
Ans. > 58.9 µM (inactive)

Qu. Do the same for `CN1CCc2[nH]nc(-c3n[nH]c4c3CN(C)CC4)c2C1` please
Ans. > 100 µM (inactive)

Qu. Do the same for `C=C(C)[C@H]1C[C@@H]2O[C@@](O)(/C(C)=C\C(=O)/C=C(/C)C[C@H]3OC(=O)[C@@]24O[C@H]34)[C@@H]1O` please
Ans. > 100 µM (inactive)

----------
# Tested on: MDA-MB-231
# assay.notes: NCI tumour cell line growth inhibition, 48 h
Active and inactive are the calls of the source. Cut-off read from the data, not from the text of the source: active = GI50 up to about 1.1 µM and inactive = higher.
Below: a set of entries, each annotated with reported GI50.

Qu. Dear colleague, I am looking for the recorded GI50 of the following compound: `O=c1[nH]c2ccc([N+](=O)[O-])c(Cl)c2c2ccccc12`
Ans. 8.07 µM (inactive)

Qu. Do the same for COc1ccc2c(c1)CCC1=C/C(=N\NC(N)=O)CCC12C (stereo unspecified) please
Ans. > 10 µM (inactive)

Qu. Do the same for `O=C(NC(=S)Nc1ccc(Br)cc1)c1ccc2c(c1)Sc1ccccc1S2` please
Ans. 17.6 µM (inactive)

Qu. Do the same for `CCCCCCCCCCCCCC[C@@H](O)[C@H]1CC[C@H]([C@H]2CC[C@H]([C@H](O)CCCCCC[C@@H](O)CC3=C[C@H](C)OC3=O)O2)O1` please
Ans. > 25 µM (inactive)

Qu. Do the same for `COc1cccc(/N=N/C(=N/NC(=O)c2cc(Cl)ccc2O)c2ccc(N(CCC#N)CCC#N)cc2C)c1` please
Ans. 35.1 µM (inactive)

Qu. Do the same for `Cc1nc(-n2nc(-c3ccccc3)cc2-c2ccccc2)sc1C(=O)/C=C/c1ccc([N+](=O)[O-])cc1` please
Ans. 33.1 µM (inactive)

Qu. Do the same for `O=C1C(Br)=Cc2c(Cl)sc(Cl)c21` please
Ans. 3.13 µM (inactive)

Qu. Do the same for `COc1ccc(C(=O)/C=C/c2ccc(OCC#N)cc2)cc1OC` please
Ans. 13.8 µM (inactive)
